test: Equilibrium solubility in phosphate buffer, pH 7.4; type: physicochemical; conditions: aqueous buffer, thermodynamic from solid, phosphate buffer pH 7.4, shaken overnight at room temperature, LC-MS/MS
measurement-label: solubility (µg/mL)

Worked cases, solubility given:
1) O=C(O)Cc1nn(Cc2nc3cc(Cl)ccc3s2)c(=O)c2cscc12 [Compound XX] : 590
2) O=C(O)Cc1nn(Cc2cc3ccccc3o2)c(=O)c2cscc12 [Compound XXVI] : 790

1. O=C(O)Cc1nn(Cc2nc3cc(C(F)(F)F)ccc3s2)c(=O)c2cscc12 [Compound XII]
2. O=C(O)Cc1nn(Cc2nc3cc(F)ccc3s2)c(=O)c2cscc12 [Compound XIV]
Pick one, 1 or 2 : lowest reported solubility. # respond with the chosen item's label
2

---

In this section we review reported melting point values for a set of compounds.

Worked cases, melting point given:
1) O=C(O)Cc1nn(Cc2nc3cc(F)ccc3s2)c(=O)c2cscc12 [Compound XIV] : 172 to 173 °C
2) O=C(O)Cc1nn(Cc2nc3ccccc3s2)c(=O)c2cscc12 [Compound XVI] : 172 to 173 °C
3) O=C(O)Cc1nn(Cc2cc3ccccc3o2)c(=O)c2cscc12 [Compound XXVI] : 158 to 159 °C
4) O=C(O)Cc1nn(Cc2nc3cc(Cl)ccc3s2)c(=O)c2cscc12 [Compound XX] : 184 to 185 °C
5) O=C(O)Cc1nn(Cc2cc3cc(Cl)ccc3o2)c(=O)c2cscc12 [Compound XXIV] : 154 to 155 °C
6) CC(C)(C)OC(=O)Cc1nn(Cc2cc3cc(Cl)ccc3o2)c(=O)c2cscc12 [Compound XXIII] : 117 to 118 °C

Any idea what melting point was measured for O=C(O)Cc1nn(Cc2nc3cc(C(F)(F)F)ccc3s2)c(=O)c2c(Cl)sc(Cl)c12 [Compound VII] ?
205 to 207 °C

Provenance of the data: patent US10870658B2
